# credit: paper PMC4278708

Tested on: Staphylococcus aureus
measurement.protocol: Antibacterial activity, disc diffusion method
Type: cell-based
conditions.used: Staphylococcus aureus, read-out: Staphylococcus aureus IC50 ug/ml
property.name: IC50 (µg/mL)
One number for each entry, in µg/mL.

Past entries and their recorded results:
C#CCOc1ccc(Br)cc1Br [Compound 2c, 2,4-dibromo-1-(prop-2-ynyloxy)benzene]    87.7
C#CCOc1ccc(C)cc1Br [Compound 2d]    95.9
C#CCOc1ccc(F)cc1Br [Compound 2e]    85.1
C#CCOc1ccc(Br)cc1Cl [Compound 2a]    97.7
C#CCOc1ccc(Cl)cc1Br [Compound 2b]    87.7
C#CCOc1ccc(S(=O)(=O)c2ccc(OCC#C)cc2)cc1 [Compound 4b]    94.2
C#CCOc1ccc(C(C)(C)c2ccc(OCC#C)cc2)cc1 [Compound 4a]    97.7

Next up:
Prompt: Consider the compound C#CCOc1ccc2ccccc2c1 [Compound 6b, 2-(prop-2-ynyloxy)naphthalene] and give its measured IC50.
Completion: 98.3
